System: PPARg:RXRa (NR concentration 180 nM, RXRa partner concentration 90 nM)
Assay: PBM binding z-score (relative to random genomic background probes); higher = stronger binding; sequences stand for … in GC…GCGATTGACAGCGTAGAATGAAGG
Please note: Satisfied applies when PBM binding z-score is 2 or greater, and Not satisfied applies otherwise.

- ITEM_SEQUENCE: "TTACCAAGGTGAGCAGAGGTCGTTGATCCAACTC"
  CATEGORY: "Satisfied"
- ITEM_SEQUENCE: "TAGCCTAGGTCATGTGCCAGTATACCACGCGAAC"
  CATEGORY: "Satisfied"
- ITEM_SEQUENCE: "TTACCAAGGTGAAGGTCGTTGCTCCCTCTGTAGA"
  CATEGORY: "Satisfied"
- ITEM_SEQUENCE: "ATGTGTAGGTTAGCTGGGGTCATTCAGACTAGGC"
  CATEGORY: "Satisfied"
- ITEM_SEQUENCE: "TTATATAGGTAAACAGGTGAAAGTCCGTAAGTTA"
  CATEGORY: "Satisfied"
- ITEM_SEQUENCE: "ATCGAAAGGTAGAGGTGAGTATAGAGAAAGGGAA"
  CATEGORY: "Not satisfied"
- ITEM_SEQUENCE: "CCTACTGGGCCATCAGGTCATTGCTATCAACGTT"
  CATEGORY: "Satisfied"
- ITEM_SEQUENCE: "CAGCCTAGGTCAGGGCCAGCATAGGAGGAACGTT"
  CATEGORY: "Not satisfied"
- ITEM_SEQUENCE: "ACTTACGGATCAACGAGGTTATAGCACGCGTATA"
  CATEGORY: "Not satisfied"
- ITEM_SEQUENCE: "AGACTGAGGTTAAGATCAGGGAAACAGAATACAT"
  CATEGORY: "Not satisfied"
- ITEM_SEQUENCE: "AGAATGAGGTTATACGTAGATCAGGGATGAAAGT"
  CATEGORY: "Satisfied"
- ITEM_SEQUENCE: "GCGACTGGGGCATCAGTAGGTTACCATAACTTAA"
  CATEGORY: "Not satisfied"

---

Tested on: RARg homodimer (NR concentration 270 nM)
Experiment: PBM binding z-score (relative to random genomic background probes); higher = stronger binding; sequences stand for … in GC…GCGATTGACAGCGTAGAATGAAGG
Please note: Fulfilled applies when PBM binding z-score is 0.7 or greater, and Not fulfilled applies otherwise.

- ITEM_SEQUENCE: "CCGACTGGGGCATAAGGATACCATAAGCCAGCCC"
  TESTED_SYSTEM: "RARg homodimer (NR concentration 270 nM)"
  CATEGORY: "Not fulfilled"
- ITEM_SEQUENCE: "ATATGAAGGTTACATCCGGGTCATTCAGGCTATG"
  TESTED_SYSTEM: "RARg homodimer (NR concentration 270 nM)"
  CATEGORY: "Fulfilled"
- ITEM_SEQUENCE: "TCTCGGAGGACACGTAAGGTCAGAGCTCGACATC"
  TESTED_SYSTEM: "RARg homodimer (NR concentration 270 nM)"
  CATEGORY: "Fulfilled"
- ITEM_SEQUENCE: "CTTCCAAGGTCAAGGTCAGTGAAAGAGACTCGAA"
  TESTED_SYSTEM: "RARg homodimer (NR concentration 270 nM)"
  CATEGORY: "Fulfilled"
- ITEM_SEQUENCE: "TCTATTAGATGAAGGGCAACCGACGAGTCCGTTT"
  TESTED_SYSTEM: "RARg homodimer (NR concentration 270 nM)"
  CATEGORY: "Not fulfilled"
- ITEM_SEQUENCE: "TCAAGCAGGCCAGAGGGTCACTCAAGAGGTACGG"
  TESTED_SYSTEM: "RARg homodimer (NR concentration 270 nM)"
  CATEGORY: "Fulfilled"
- ITEM_SEQUENCE: "ACTAGCAGGCCAAGGGTCAATCAAGATTAGTCCG"
  TESTED_SYSTEM: "RARg homodimer (NR concentration 270 nM)"
  CATEGORY: "Fulfilled"
- ITEM_SEQUENCE: "TCTAGTTGGTCACGGAGGTCATACACGACGGGTA"
  TESTED_SYSTEM: "RARg homodimer (NR concentration 270 nM)"
  CATEGORY: "Fulfilled"
- ITEM_SEQUENCE: "ATCTCTAGGTAAAGTTCACTGAAAGATCGATAGA"
  TESTED_SYSTEM: "RARg homodimer (NR concentration 270 nM)"
  CATEGORY: "Fulfilled"
- ITEM_SEQUENCE: "TCTTGTAGATCAAGCCGGTTAAGAAAGCCTGAGT"
  TESTED_SYSTEM: "RARg homodimer (NR concentration 270 nM)"
  CATEGORY: "Not fulfilled"
- ITEM_SEQUENCE: "AGAATGAGGTTACCAAACATCAGGGAAACGCTTG"
  TESTED_SYSTEM: "RARg homodimer (NR concentration 270 nM)"
  CATEGORY: "Fulfilled"
- ITEM_SEQUENCE: "CCGAGGAGGTTATGGGGCATTCAGGCAACGGTGA"
  TESTED_SYSTEM: "RARg homodimer (NR concentration 270 nM)"
  CATEGORY: "Fulfilled"
- ITEM_SEQUENCE: "ATCGAAAGGTCGTGAGGTGAGTAGACAGAAAGGC"
  TESTED_SYSTEM: "RARg homodimer (NR concentration 270 nM)"
  CATEGORY: "Fulfilled"
- ITEM_SEQUENCE: "TCATAGAGGTAAAAGGTGAAAGTCGGTGTGGTAA"
  TESTED_SYSTEM: "RARg homodimer (NR concentration 270 nM)"
  CATEGORY: "Fulfilled"
- ITEM_SEQUENCE: "CTACCAAGGTGAACAAGGTCGTCGATTACTATTC"
  TESTED_SYSTEM: "RARg homodimer (NR concentration 270 nM)"
  CATEGORY: "Fulfilled"
- ITEM_SEQUENCE: "GATATAGGGTCAAGGCCAGAGTACGCGTATTGAT"
  TESTED_SYSTEM: "RARg homodimer (NR concentration 270 nM)"
  CATEGORY: "Fulfilled"
- ITEM_SEQUENCE: "TCATATAGGTGAATGCTAGGTGAAAGTCCGATCT"
  TESTED_SYSTEM: "RARg homodimer (NR concentration 270 nM)"
  CATEGORY: "Not fulfilled"
- ITEM_SEQUENCE: "CGAACTAGGTCCGAACAGGACAGTGAAGGATGAT"
  TESTED_SYSTEM: "RARg homodimer (NR concentration 270 nM)"
  CATEGORY: "Not fulfilled"
- ITEM_SEQUENCE: "CCTCGGAGGACAACAGGAGATCAGAGCTGCCAGA"
  TESTED_SYSTEM: "RARg homodimer (NR concentration 270 nM)"
  CATEGORY: "Fulfilled"
- ITEM_SEQUENCE: "CGAACAAGGGCATGAGTTGATAGCAAATGCCGAT"
  TESTED_SYSTEM: "RARg homodimer (NR concentration 270 nM)"
  CATEGORY: "Fulfilled"
- ITEM_SEQUENCE: "GCTAGTTGATCAGTAAAAGGTCACACACCGGTCG"
  TESTED_SYSTEM: "RARg homodimer (NR concentration 270 nM)"
  CATEGORY: "Fulfilled"
- ITEM_SEQUENCE: "CTTCGGAGGACAACAGGAGGTCAGAGCTGCCAGA"
  TESTED_SYSTEM: "RARg homodimer (NR concentration 270 nM)"
  CATEGORY: "Fulfilled"
- ITEM_SEQUENCE: "TCTTGTAGATCAAGCAGGCTAAGAAAGCCTGAGT"
  TESTED_SYSTEM: "RARg homodimer (NR concentration 270 nM)"
  CATEGORY: "Not fulfilled"
- ITEM_SEQUENCE: "CTACCAAGGTGAACAAGGTCTTTGATTACTATTC"
  TESTED_SYSTEM: "RARg homodimer (NR concentration 270 nM)"
  CATEGORY: "Fulfilled"
- ITEM_SEQUENCE: "TAGCCTAGGTCAGATCGGGCCAGTAGACGCTATA"
  TESTED_SYSTEM: "RARg homodimer (NR concentration 270 nM)"
  CATEGORY: "Fulfilled"
- ITEM_SEQUENCE: "TCTCGTAGATCAAGCAGGTTAAGAAAGCCTGAGT"
  TESTED_SYSTEM: "RARg homodimer (NR concentration 270 nM)"
  CATEGORY: "Not fulfilled"
- ITEM_SEQUENCE: "TGAATGAGGTTATAAGATAAGGGAACGTTGCAAA"
  TESTED_SYSTEM: "RARg homodimer (NR concentration 270 nM)"
  CATEGORY: "Fulfilled"
- ITEM_SEQUENCE: "ATCTCTAGGTAAAGTTCAGAGAAAGATCGATAGA"
  TESTED_SYSTEM: "RARg homodimer (NR concentration 270 nM)"
  CATEGORY: "Fulfilled"
- ITEM_SEQUENCE: "ATCTCTAGGTAACAAGTTCAGTGAGAGAGAGGAC"
  TESTED_SYSTEM: "RARg homodimer (NR concentration 270 nM)"
  CATEGORY: "Fulfilled"
- ITEM_SEQUENCE: "GCTTGTAGATCAAGGGTAAGAAAGACTAAGCTAA"
  TESTED_SYSTEM: "RARg homodimer (NR concentration 270 nM)"
  CATEGORY: "Not fulfilled"
- ITEM_SEQUENCE: "CCTGCAAGGTCAATGGTCAGCTAAAGCAGCTCGC"
  TESTED_SYSTEM: "RARg homodimer (NR concentration 270 nM)"
  CATEGORY: "Fulfilled"
- ITEM_SEQUENCE: "ATCTCTATGTAACAAGTTCAGTGAAAGAGAGGAC"
  TESTED_SYSTEM: "RARg homodimer (NR concentration 270 nM)"
  CATEGORY: "Fulfilled"
- ITEM_SEQUENCE: "GCGACTGGGGCAAAGCCGGTTACCATAAGGTTGG"
  TESTED_SYSTEM: "RARg homodimer (NR concentration 270 nM)"
  CATEGORY: "Not fulfilled"
- ITEM_SEQUENCE: "ACAGACAGGTGATGAAGGTAACTCATGCTATCAT"
  TESTED_SYSTEM: "RARg homodimer (NR concentration 270 nM)"
  CATEGORY: "Not fulfilled"
- ITEM_SEQUENCE: "CCTCGGAGGACAGAAGATCAGAGCTGTCCGCTTT"
  TESTED_SYSTEM: "RARg homodimer (NR concentration 270 nM)"
  CATEGORY: "Not fulfilled"
- ITEM_SEQUENCE: "AGAACGAGGGCACGCTGCGTTGATAGCAGAGTAG"
  TESTED_SYSTEM: "RARg homodimer (NR concentration 270 nM)"
  CATEGORY: "Fulfilled"
- ITEM_SEQUENCE: "TCATATAGGGAATACAGGTGAAAGTCGGCATCTA"
  TESTED_SYSTEM: "RARg homodimer (NR concentration 270 nM)"
  CATEGORY: "Not fulfilled"
- ITEM_SEQUENCE: "GCGACTGGGGCATCAGCAGGTTACCAAAACTTAA"
  TESTED_SYSTEM: "RARg homodimer (NR concentration 270 nM)"
  CATEGORY: "Not fulfilled"
- ITEM_SEQUENCE: "TAGCCTAGATCATTGGGCCAGTATAGTACGCATC"
  TESTED_SYSTEM: "RARg homodimer (NR concentration 270 nM)"
  CATEGORY: "Not fulfilled"
- ITEM_SEQUENCE: "TCTGCTAGGTCAACGATGATCAGCTAATCTGCTA"
  TESTED_SYSTEM: "RARg homodimer (NR concentration 270 nM)"
  CATEGORY: "Fulfilled"
- ITEM_SEQUENCE: "CGAACTGGGTCATTGACAGGACAGTGAATAGTAA"
  TESTED_SYSTEM: "RARg homodimer (NR concentration 270 nM)"
  CATEGORY: "Fulfilled"
- ITEM_SEQUENCE: "AGAATGAGGTTACCAAAGATCAGCGAAACGCTTG"
  TESTED_SYSTEM: "RARg homodimer (NR concentration 270 nM)"
  CATEGORY: "Fulfilled"
- ITEM_SEQUENCE: "TCGAGTAGGTTACCACTGGGGCATTCAGCTTTCT"
  TESTED_SYSTEM: "RARg homodimer (NR concentration 270 nM)"
  CATEGORY: "Not fulfilled"
- ITEM_SEQUENCE: "CCTTACGGGTCAAGGTTTTAGCACGGGTGGTACG"
  TESTED_SYSTEM: "RARg homodimer (NR concentration 270 nM)"
  CATEGORY: "Fulfilled"
- ITEM_SEQUENCE: "TGTCAAAATTCAAAGGTAACGTAAGTATCCACAC"
  TESTED_SYSTEM: "RARg homodimer (NR concentration 270 nM)"
  CATEGORY: "Fulfilled"
- ITEM_SEQUENCE: "ATCTCTAAGTAACAAGTTCAGTGAAAGAGAGGAC"
  TESTED_SYSTEM: "RARg homodimer (NR concentration 270 nM)"
  CATEGORY: "Fulfilled"
- ITEM_SEQUENCE: "CAAACTAGGCCACGAAAGGTCAAAGTCGAATGAC"
  TESTED_SYSTEM: "RARg homodimer (NR concentration 270 nM)"
  CATEGORY: "Fulfilled"
- ITEM_SEQUENCE: "CGAACTCGGTCAAGGACAGTGAATCTCCGCACGC"
  TESTED_SYSTEM: "RARg homodimer (NR concentration 270 nM)"
  CATEGORY: "Fulfilled"
- ITEM_SEQUENCE: "TCATATAGGTAATACAGGTGAAGGTCGGCATCTA"
  TESTED_SYSTEM: "RARg homodimer (NR concentration 270 nM)"
  CATEGORY: "Fulfilled"
- ITEM_SEQUENCE: "CCTCGGAGGACTACAGGAGGTCAGAGCTGCCAGA"
  TESTED_SYSTEM: "RARg homodimer (NR concentration 270 nM)"
  CATEGORY: "Fulfilled"
- ITEM_SEQUENCE: "ACTGACAGGTGAGTGAAGGTAACTCAGCTGGACG"
  TESTED_SYSTEM: "RARg homodimer (NR concentration 270 nM)"
  CATEGORY: "Not fulfilled"

Hey, just so you know, these numbers are from the supplement of paper PMC6555819.
